- Test system: LuHCV cells
- Test details: Evaluation of cell growth suppression using LuHCV cells (percentage of viable cells, reagent SF)
- Assay type: cell-based, human
- Condition context: 10 μM, 48 hours, DMSO = 100%
Assay metric: viability (% control)
Answers are plain numbers, in % control.

compound="O=C(Nc1cc(C(F)(F)F)ccc1N1CCCCCCCC1)c1ccncc1 [Compound 20]" assay_metric="viability (% control)" assay_result=111.50
compound="COc1ccccc1C(=O)NC(=S)Nc1cc(C(F)(F)F)ccc1N1CCCCCCC1 [Compound 15]" assay_metric="viability (% control)" assay_result=107.86
compound="O=C(NC(=O)c1cccnc1)Nc1cc(C(F)(F)F)ccc1N1CCCCCCC1 [Compound 8]" assay_metric="viability (% control)" assay_result=77.35
compound="O=C(NC(=S)Nc1cc(C(F)(F)F)ccc1N1CCCCCC1)c1cccnc1 [Compound 4]" assay_metric="viability (% control)" assay_result=93.86
compound="O=C(NC(=S)Nc1cc(C(F)(F)F)ccc1N1CCCCC1)c1cccnc1 [Compound 3]" assay_metric="viability (% control)" assay_result=103.79

I'm hoping you can list viability (% control) for every compound here, please.
1. O=C(NC(=S)Nc1cc(C(F)(F)F)ccc1N1CCCCCCC1)c1ccc(F)cc1 [Compound 13]
2. O=C(NC(=S)Nc1cc(C(F)(F)F)ccc1N1CCCCCCC1)c1ccncc1 [Compound 7]

1. 101.56
2. 76.97

For each listed entry, give its viability (% control).
1. O=C(NC(=S)Nc1cc(C(F)(F)F)ccc1F)c1cccnc1 [Compound 16]
2. COc1ccc(C(=O)NC(=S)Nc2cc(C(F)(F)F)ccc2N2CCCCCCC2)cc1 [Compound 12]
3. FC(F)(F)c1ccc(N2CC[C@H]3CCCC[C@@H]3C2)c(NC(=S)c2ccncc2)c1 (relative stereo) [Compound 22]
4. O=C(NC(=S)Nc1cc(F)ccc1N1CCCCCCC1)c1cccnc1 [Compound 9]
5. Cc1ccc(C(=O)NC(=S)Nc2cc(C(F)(F)F)ccc2N2CCCCCCC2)cc1 [Compound 11]

85.21
94.69
104.65
82.79
89.95
